Settings: 60 min, 5 µM
rule met if Rat Plasma Prodrug (%) is below 40%. rule not met if not; exact matches included in rule not met.

Prompt: Lab note: confirm whether the reported Rat Plasma Prodrug (%) for this compound is below 40%, equality not counting. compound: CCC(C)C(=O)OC1=C[C@@H]2N(C)CC[C@]2(c2ccc(OC)c(OC)c2)CC1 (stereo partly shown) [Compound 425]
Completion: rule met

Prompt: API: query returns whether the compound falls strictly under 40% in Rat Plasma Prodrug (%). Query: CCCC(CCC)C(=O)OC1=C[C@@H]2N(C)CC[C@]2(c2ccc(OC)c(OC)c2)CC1 [Compound 427]
Completion: rule not met

Prompt: Rat Plasma Prodrug (%) strictly < 40% for this compound? COc1ccc([C@@]23CCC(OC(=O)c4c(C)cccc4C)=C[C@@H]2N(C)CC3)cc1OC [Compound 372]
Completion: rule not met

Prompt: hey, is Rat Plasma Prodrug (%) for CCCCCC(C)C(=O)OC1=C[C@@H]2N(C)CC[C@]2(c2ccc(OC)c(OC)c2)CC1 (stereo partly shown) [Compound 400] lower than 40% or not?
Completion: rule met

Prompt: Does this compound meet the criterion Rat Plasma Prodrug (%) < 40%? CCC(C)(C)C(=O)OC1=C[C@@H]2N(C)CC[C@]2(c2ccc(OC)c(OC)c2)CC1 [Compound 428]
Completion: rule not met

Prompt: Given CCCCC(CC)C(=O)OC1=C[C@@H]2N(C)CC[C@]2(c2ccc(OC)c(OC)c2)CC1 (stereo partly shown) [Compound 401] , is recorded Rat Plasma Prodrug (%) strictly lower than 40%?
Completion: rule met

Prompt: Is 40% strictly greater than the compound's reported Rat Plasma Prodrug (%)? compound: CCCC(C)(C)C(=O)OC1=C[C@@H]2N(C)CC[C@]2(c2ccc(OC)c(OC)c2)CC1 [Compound 429]
Completion: rule not met
